Test: Solubilization of ketoconazole in concentrated POM polymer solution (visual check)
Format: physicochemical
Conditions: pH 7, aqueous with cosolvent or surfactant or cyclodextrin, thermodynamic from solid, sodium polyglutamate DP=100, 30% VE, 53.5 mg/ml; pH 7.0; ambient temperature; read-out: Total concentration of solubilized active ingredient
observationType: solubility (mM)
Answer with a number only, understood to be in mM.

Query (compound): CC(=O)N1CCN(c2ccc(OCC3COC(Cn4ccnc4)(c4ccc(Cl)cc4Cl)O3)cc2)CC1 (stereo not shown) ; field requested: solubility
14.1

----------
Assay: Solubilization of paclitaxel in concentrated aqueous POM polymer solution (visual check)
Format: physicochemical
Settings: concentrated aqueous POM polymer solution, pH 7, aqueous with cosolvent or surfactant or cyclodextrin, thermodynamic from solid, sodium polyglutamate DP=100, 10% VE, 52.8 mg/ml; pH 7.0; ambient temperature; read-out: Total concentration of solubilized active ingredient
observationType: solubility (µM)
Answer with a number only, understood to be in µM.

Query (molecule): `CC(=O)O[C@H]1C(=O)[C@@]2(C)[C@H]([C@H](OC(=O)c3ccccc3)[C@]3(O)C[C@H](OC(=O)[C@H](O)[C@@H](NC(=O)c4ccccc4)c4ccccc4)C(C)=C1C3(C)C)[C@]1(OC(C)=O)CO[C@@H]1C[C@@H]2O` ; field requested: solubility
1500

----------
Assay: physchem
Details: aqueous medium without polymer, pH 7, aqueous buffer, thermodynamic from solid, solubility in the absence of polymer, pH 7.0, absence of polymer
observationType: solubility

Query (compound): CC(=O)N1CCN(c2ccc(OCC3COC(Cn4ccnc4)(c4ccc(Cl)cc4Cl)O3)cc2)CC1 (stereo not shown) [ketoconazole] ; field requested: solubility
~20 µM
